biological target: STK33 (Homo sapiens, UniProt Q9BYT3)
Sequence (Q9BYT3 whole entry): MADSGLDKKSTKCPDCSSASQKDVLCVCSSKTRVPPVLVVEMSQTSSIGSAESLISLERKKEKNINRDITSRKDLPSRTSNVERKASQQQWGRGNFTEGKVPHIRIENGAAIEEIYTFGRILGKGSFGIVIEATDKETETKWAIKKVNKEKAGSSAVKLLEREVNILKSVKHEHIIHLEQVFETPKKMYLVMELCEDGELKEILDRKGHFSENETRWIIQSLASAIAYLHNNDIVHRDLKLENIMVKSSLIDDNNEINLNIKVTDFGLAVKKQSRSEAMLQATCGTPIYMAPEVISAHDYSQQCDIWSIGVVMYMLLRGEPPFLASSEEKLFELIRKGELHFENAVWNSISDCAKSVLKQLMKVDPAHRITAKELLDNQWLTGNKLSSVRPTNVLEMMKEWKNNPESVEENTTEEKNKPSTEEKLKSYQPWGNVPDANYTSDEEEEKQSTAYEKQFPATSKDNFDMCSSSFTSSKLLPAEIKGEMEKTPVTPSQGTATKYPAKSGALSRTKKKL
measured property: pIC50
Just the number, please; pIC50 means minus log10 of the concentration in mol/L.

Q. I would be grateful if you could share the reported pIC50 for `COc1ccc2[nH]c3c4[nH]c5ccc(OC)cc5c4c4c(c3c2c1)C(=O)NC4=O` .
A. 6.96

* * *

Target: UniProt:P30530
Sequence (P30530 26-894): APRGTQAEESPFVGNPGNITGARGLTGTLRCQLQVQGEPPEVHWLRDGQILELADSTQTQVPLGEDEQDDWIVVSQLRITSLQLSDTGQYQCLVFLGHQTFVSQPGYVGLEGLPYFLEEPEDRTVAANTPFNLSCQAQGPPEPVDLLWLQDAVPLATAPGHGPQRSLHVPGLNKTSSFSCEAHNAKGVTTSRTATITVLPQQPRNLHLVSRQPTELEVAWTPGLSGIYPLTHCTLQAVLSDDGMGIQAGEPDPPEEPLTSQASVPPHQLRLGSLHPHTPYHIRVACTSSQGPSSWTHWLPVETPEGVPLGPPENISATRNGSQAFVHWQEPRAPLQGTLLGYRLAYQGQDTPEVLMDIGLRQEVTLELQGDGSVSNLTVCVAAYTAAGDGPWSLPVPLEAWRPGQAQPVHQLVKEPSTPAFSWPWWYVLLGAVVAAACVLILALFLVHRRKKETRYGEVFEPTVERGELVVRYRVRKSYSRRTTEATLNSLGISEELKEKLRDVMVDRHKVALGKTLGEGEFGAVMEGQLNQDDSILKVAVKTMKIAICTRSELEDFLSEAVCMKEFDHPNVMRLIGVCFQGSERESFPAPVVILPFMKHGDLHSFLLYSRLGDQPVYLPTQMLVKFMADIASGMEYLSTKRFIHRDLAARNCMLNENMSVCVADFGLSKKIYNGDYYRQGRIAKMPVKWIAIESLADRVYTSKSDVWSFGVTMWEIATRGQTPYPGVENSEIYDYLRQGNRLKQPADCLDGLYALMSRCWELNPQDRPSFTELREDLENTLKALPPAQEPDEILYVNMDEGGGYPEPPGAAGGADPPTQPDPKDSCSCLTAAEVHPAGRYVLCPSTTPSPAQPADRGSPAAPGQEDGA
measured property: IC50
Express the reported value numerically, then name its unit.

Q. Need IC50, item COc1ccc2[nH]c3c4[nH]c5ccc(OC)cc5c4c4c(c3c2c1)C(=O)NC4=O [GW296115]
A. 160 nM

* * *

target: DAPK1 (Homo sapiens)
Sequence (P53355 whole entry): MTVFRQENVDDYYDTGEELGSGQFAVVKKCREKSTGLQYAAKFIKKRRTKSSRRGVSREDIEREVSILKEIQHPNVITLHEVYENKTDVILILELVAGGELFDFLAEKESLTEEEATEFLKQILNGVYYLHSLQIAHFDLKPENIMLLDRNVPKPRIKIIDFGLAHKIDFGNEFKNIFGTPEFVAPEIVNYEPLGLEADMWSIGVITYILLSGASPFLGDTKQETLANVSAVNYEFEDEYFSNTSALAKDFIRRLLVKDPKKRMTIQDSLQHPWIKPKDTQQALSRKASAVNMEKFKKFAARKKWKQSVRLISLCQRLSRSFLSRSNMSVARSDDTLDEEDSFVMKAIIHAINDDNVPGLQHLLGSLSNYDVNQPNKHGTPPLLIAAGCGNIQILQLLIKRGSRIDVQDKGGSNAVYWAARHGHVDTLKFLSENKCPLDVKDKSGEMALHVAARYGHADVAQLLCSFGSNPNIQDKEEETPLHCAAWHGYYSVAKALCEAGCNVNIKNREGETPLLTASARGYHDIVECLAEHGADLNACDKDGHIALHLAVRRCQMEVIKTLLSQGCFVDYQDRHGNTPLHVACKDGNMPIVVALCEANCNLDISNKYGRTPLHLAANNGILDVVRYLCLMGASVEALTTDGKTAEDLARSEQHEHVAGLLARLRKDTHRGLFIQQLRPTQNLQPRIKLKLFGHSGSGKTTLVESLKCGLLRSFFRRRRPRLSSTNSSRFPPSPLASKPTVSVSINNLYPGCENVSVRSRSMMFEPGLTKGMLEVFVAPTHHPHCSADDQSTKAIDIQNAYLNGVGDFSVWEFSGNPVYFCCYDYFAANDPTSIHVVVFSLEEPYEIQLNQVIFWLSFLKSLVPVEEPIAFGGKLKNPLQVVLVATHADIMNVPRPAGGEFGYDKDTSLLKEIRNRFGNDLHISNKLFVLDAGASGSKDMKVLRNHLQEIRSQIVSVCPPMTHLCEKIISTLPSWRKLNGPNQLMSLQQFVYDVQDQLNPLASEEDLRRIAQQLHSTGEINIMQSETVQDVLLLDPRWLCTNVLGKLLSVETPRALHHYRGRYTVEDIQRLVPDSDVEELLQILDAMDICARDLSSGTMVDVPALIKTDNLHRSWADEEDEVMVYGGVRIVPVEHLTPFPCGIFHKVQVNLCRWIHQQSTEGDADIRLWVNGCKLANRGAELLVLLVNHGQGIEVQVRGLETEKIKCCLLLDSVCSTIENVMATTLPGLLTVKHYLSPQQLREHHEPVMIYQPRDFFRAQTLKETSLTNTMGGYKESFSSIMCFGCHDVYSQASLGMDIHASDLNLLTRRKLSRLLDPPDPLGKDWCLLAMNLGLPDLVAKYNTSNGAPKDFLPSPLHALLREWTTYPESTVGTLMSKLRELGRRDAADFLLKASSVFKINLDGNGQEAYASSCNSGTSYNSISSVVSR
pIC50: −log10 of the molar value.
measured property: pIC50

Q. I have this molecule here, `COc1ccc2[nH]c3c4[nH]c5ccc(OC)cc5c4c4c(c3c2c1)C(=O)NC4=O` , and I need its recorded pIC50.
A. < 5.00

* * *

biological target: NLuc-BRSK2 in HEK293 cells (Homo sapiens, UniProt Q8IWQ3); construct: host or cells: HEK293; test: BRSK2 NanoBRET cellular target engagement assay; type: cell-based; conditions: HEK293 cells transiently expressing NLuc-BRSK2; Tracer K5 1 μM; N = 3; read-out: BRSK2 NanoBRET data IC50
Sequence (Q8IWQ3 whole entry): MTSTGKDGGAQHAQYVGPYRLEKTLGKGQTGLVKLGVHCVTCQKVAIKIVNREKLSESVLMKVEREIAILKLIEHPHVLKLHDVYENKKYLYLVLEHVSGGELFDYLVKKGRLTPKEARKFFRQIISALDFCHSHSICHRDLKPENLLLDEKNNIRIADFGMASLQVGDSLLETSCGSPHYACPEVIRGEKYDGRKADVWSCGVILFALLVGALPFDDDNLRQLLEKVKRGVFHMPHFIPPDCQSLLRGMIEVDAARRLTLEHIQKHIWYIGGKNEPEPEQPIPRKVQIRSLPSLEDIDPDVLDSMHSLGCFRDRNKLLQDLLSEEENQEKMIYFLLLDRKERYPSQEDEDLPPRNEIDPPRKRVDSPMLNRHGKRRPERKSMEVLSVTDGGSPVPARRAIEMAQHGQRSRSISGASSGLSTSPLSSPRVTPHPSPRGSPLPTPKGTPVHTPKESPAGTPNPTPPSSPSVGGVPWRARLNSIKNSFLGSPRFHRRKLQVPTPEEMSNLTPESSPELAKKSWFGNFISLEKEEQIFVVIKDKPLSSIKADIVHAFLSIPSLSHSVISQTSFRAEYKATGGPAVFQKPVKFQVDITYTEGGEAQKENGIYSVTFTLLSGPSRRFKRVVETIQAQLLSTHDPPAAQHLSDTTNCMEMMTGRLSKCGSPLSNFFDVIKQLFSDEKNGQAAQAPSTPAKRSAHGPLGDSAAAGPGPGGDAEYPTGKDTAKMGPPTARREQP
pIC50: −log10 of the molar value.
Note to self: values exactly at 6 are criterion met. So pIC50 at or above 6 is criterion met, below is criterion not met.

Q. Determine whether measured pIC50 meets or exceeds 6 for `O=C1NC(=O)c2c1c1c3ccccc3[nH]c1c1[nH]c3ccccc3c21`
A. criterion not met

Q. Also need `COc1ccc2[nH]c3c4[nH]c5ccc(OC)cc5c4c4c(c3c2c1)C(=O)NC4=O` , thanks.
A. criterion met
